Assay: chemical genetic growth profiling, strain panel (AID 1159580);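 further: tested at 20 µM; growth read once vehicle control cultures reached saturation at 30 °C; 1 = growth at the plate median or of vehicle wells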
Settings: S. cerevisiae deletion strains, growth OD, locus YER111C, strain swi4, stronger effect = lower value
The whole screen tested about 5,500 compounds, of which about 2,000 (36%) were called active. Not shown: some 18% with an inconclusive outcome. This is one part of the list.
property name: normalized growth
Reply with the value as a number alone.

Examples from the recorded data:
[
  {
    "molecule": "COc1ccc2c(c1)OC/C(=C/c1ccc(OC)c(OC)c1)C2=O",
    "property name": "normalized growth",
    "result": 1.01
  },
  {
    "molecule": "OCCc1ccccc1",
    "property name": "normalized growth",
    "result": 0.982
  },
  {
    "molecule": "COC(=O)c1cc(=O)c(O)c2c(O)c(O)ccc2c1",
    "property name": "normalized growth",
    "result": 0.976
  },
  {
    "molecule": "O=C(O)CCCc1ccccc1",
    "property name": "normalized growth",
    "result": 0.992
  },
  {
    "molecule": "NS(=O)(=O)c1cc2c(cc1Cl)NC=NS2(=O)=O",
    "property name": "normalized growth",
    "result": 0.99
  },
  {
    "molecule": "O=C(O)c1cc2cc(F)ccc2[nH]1",
    "property name": "normalized growth",
    "result": 1.01
  }
]

Give reported normalized growth value for `CC(=O)Oc1cc(OC(C)=O)c2c(c1)O[C@H](c1ccc(OC(C)=O)c(OC(C)=O)c1)[C@@H](OC(C)=O)C2`
1

* * *

Assay: chemical genetic growth profiling, strain panel (AID 1159580)
Details: S. cerevisiae deletion strains, growth OD, strain NNK1
The campaign covered roughly 5,500 compounds. About 2,000 (36%) were called active. Not shown: some 18% with an inconclusive outcome. Rule as the data show it: active = normalized growth mostly below about 0.91 (no sharp cut-off); inconclusive = no clear call, values can overlap the other calls; inactive = mostly above about 0.92. The list shows a part of the results.
Select the correct class. Options are active, inactive and nothing else.

Examples from the recorded data:
[
  {
    "molecule": "COc1cccc(C2CCN(C(=O)c3cccc4ccccc34)CC2)c1",
    "label value": "inactive"
  },
  {
    "molecule": "Cc1nn(C)c(C(=O)Sc2ccc(OC(F)(F)F)cc2)c1[N+](=O)[O-]",
    "label value": "inactive"
  },
  {
    "molecule": "N#C/C(=N/Nc1ccccc1)C(=O)c1ccccc1OC(F)(F)F",
    "label value": "inactive"
  },
  {
    "molecule": "CC1(C)CC(=O)C=C(Sc2nc3ccccc3o2)C1",
    "label value": "inactive"
  },
  {
    "molecule": "O=[N+]([O-])c1ccc(-c2noc(-c3ccno3)n2)o1",
    "label value": "active"
  },
  {
    "molecule": "CC(=O)/C(C#N)=N\\Nc1ccc(F)cc1",
    "label value": "active"
  }
]

GET /call?item= `Cc1c(C(=O)Sc2ccc(F)cc2F)sc2nc(C(F)(F)F)nn12` returns the recorded outcome of this test.
active

Test call for this molecule, please: CC(C)(C)c1ccc(C(=N)SC(C(=O)C(F)(F)F)c2ccccc2)cc1 (configuration not stated)
inactive

Short answer needed: outcome of this test for `CC(C)(C)c1ccc(N/N=C(\C#N)C(N)=O)cc1` ?
active

For this molecule, state the assay outcome: `CCOC(=O)c1ccc2nc(N=CNO)sc2c1`
inactive

Name the outcome recorded for `COc1cc(Cl)ccc1N/N=C(/C#N)C(N)=O` in the assay.
active

I would be grateful if you could indicate the recorded call for `O=C(c1csc(-c2ccc(Cl)cc2)c1)N1CCCCC1` .
inactive

* * *

Assay: chemical genetic growth profiling, strain panel (AID 1159580)
Conditions: S. cerevisiae deletion strains, growth OD, locus YMR231W, strain pep5, stronger effect = lower value
The campaign covered roughly 5,500 compounds. About 2,000 (36%) were called active. Inconclusive results (about 18%) are left out. Some of the results follow.
property name: normalized growth
Form rule: numeric answer, no unit written next to it.

See these solved cases before continuing.
[
  {
    "compound": "CC(=O)Oc1cc(OC(C)=O)c2c(c1)O[C@H](c1ccc(OC(C)=O)c(OC(C)=O)c1)[C@H](OC(C)=O)C2",
    "result": 1.01
  },
  {
    "compound": "CCn1cc(C(=O)O)c(=O)c2cc(F)c(N3CCNCC3)nc21",
    "result": 0.991
  },
  {
    "compound": "O=C(Oc1cc(OC(=O)c2ccccc2)c2c(c1)O[C@H](c1ccc(OC(=O)c3ccccc3)c(OC(=O)c3ccccc3)c1)[C@@H](OC(=O)c1ccccc1)C2)c1ccccc1",
    "result": 0.998
  },
  {
    "compound": "CC[C@@]1(O)C[C@H](O[C@H]2C[C@H](N(C)C)[C@H](O)[C@H](C)O2)c2c(cc3c(c2O)C(=O)c2c(O)cccc2C3=O)[C@H]1C(=O)OC",
    "result": 0.918
  },
  {
    "compound": "COc1ccc(C(=O)CC(=O)O)c2c1C=CC(C)(C)O2",
    "result": 0.994
  },
  {
    "compound": "COc1ccc2c(c1)OC/C(=C\\c1ccc(OC)c(O)c1)C2=O",
    "result": 0.977
  },
  {
    "compound": "CN1CCC(OC(c2ccccc2)c2ccccc2)CC1",
    "result": 0.996
  },
  {
    "compound": "CNC(=O)O/N=C(\\C)SC",
    "result": 0.982
  }
]

Check the records and state normalized growth for `Nc1nc(=S)c2[nH]cnc2[nH]1`
0.987

For the compound C=C[C@@](C)(O)CCC1C(=C)CCC2[C@@](C)(CO)CCC[C@]12C (some centres not stated) , report normalized growth.
1.05

Quick one: give measured normalized growth for `CCCCCCCCCCCCCc1ccco1`
0.985

* * *

Assay: chemical genetic growth profiling, strain panel (AID 1159580);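 further: tested at 20 µM; growth read once vehicle control cultures reached saturation at 30 °C; 1 = growth at the plate median or of vehicle wells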
Settings: S. cerevisiae deletion strains, growth OD, locus YNL209W, strain ssb2, stronger effect = lower value
The whole screen tested about 5,500 compounds, of which about 2,000 (36%) were called active. About 18% were inconclusive and are not listed. The list shows a part of the results.
The following compounds are shown together with reported normalized growth values.
Keep the answer to the number alone.

Example cases with answers are listed next.
[
  {
    "compound": "Nc1nc(=S)c2[nH]cnc2[nH]1",
    "result": 0.98
  },
  {
    "compound": "NCCCS(=O)(=O)O",
    "result": 1.01
  },
  {
    "compound": "O=C(c1ccc(OCCN2CCCCC2)cc1)c1c(-c2ccc(O)cc2)sc2cc(O)ccc12",
    "result": 1.01
  }
]

Return the recorded normalized growth value; entry: `COc1ccc(-c2coc3cc(O)ccc3c2=O)c(OC)c1O`
0.982

Specify measured normalized growth for COc1cc([C@@H]2c3cc4c(cc3[C@@H](O)C3COC(=O)C32)OCO4)cc(OC)c1O (some centres undefined) .
0.993

Tell me normalized growth reported for `COC(=O)/C=C/C(C)=C/C=C/C(C)=C/C=C/C=C(C)/C=C/C=C(C)/C=C/C(=O)O`
1.02

* * *

Experiment: chemical genetic growth profiling, strain panel (AID 1159580);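 further: tested at 20 µM; growth read once vehicle control cultures reached saturation at 30 °C; 1 = growth at the plate median or of vehicle wells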
Details: S. cerevisiae deletion strains, growth OD, locus YPR119W, strain clb2
Hit rate of the full screen: of about 5,500 compounds, about 2,000 (36%) were called active. About 18% were inconclusive and are not listed. No stated cut-off is given here; in the data, active means normalized growth mostly below about 0.91 (no sharp cut-off); inconclusive means no clear call, values can overlap the other calls; inactive means mostly above about 0.92. This is one part of the list.
Log the outcome using a class from 1 (active), 0 (inactive)

[
  {
    "compound": "COc1ccc(C(=O)CC(=O)O)c2c1C=CC(C)(C)O2",
    "label value": 0
  }
]

Tell me the recorded outcome of this test for C=C[C@@](C)(O)CCC1C(=C)C[C@H](O)C2C(C)(C)CCCC12C (some centres undefined) .
0

Any idea what this test logged for CNCCC(Oc1ccc(C(F)(F)F)cc1)c1ccccc1 (centres undefined) ?
0

* * *

Assay: chemical genetic growth profiling, strain panel (AID 1159580);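 further: tested at 20 µM; growth read once vehicle control cultures reached saturation at 30 °C; 1 = growth at the plate median or of vehicle wells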
Details: S. cerevisiae deletion strains, growth OD, locus YLR262C, strain YPT6 (second series), stronger effect = lower value
The campaign covered roughly 5,500 compounds. About 2,000 (36%) were called active. Roughly 18% stayed inconclusive and do not appear here. The list shows a part of the results.
Sorting guide: entries reporting normalized growth beneath 1 go in the t pile, the rest go in the f pile.

Example cases with answers are listed next.
[
  {
    "compound": "CCC[C@H](N[C@@H](C)C(=O)N1[C@H](C(=O)O)C[C@@H]2CCCC[C@@H]21)C(=O)OCC",
    "label value": "f"
  },
  {
    "compound": "O=C(NC(=O)c1ccccc1Cl)Nc1ccc(OC(F)(F)F)cc1",
    "label value": "f"
  },
  {
    "compound": "COc1ccc2c(c1)OC/C(=C\\c1ccc(OC)c(O)c1)C2=O",
    "label value": "t"
  },
  {
    "compound": "c1ccc2c(c1)sc1ccccc12",
    "label value": "t"
  }
]

Strictly below 1 in normalized growth? Clc1ccc(C(OCCN2CCCCC2)c2ccccc2)cc1 (stereo not given)
f

Here's an entry: CC[C@]1(O)CC2CN(CCc3c([nH]c4ccccc34)[C@@](C(=O)OC)(c3cc4c(cc3OC)N(C)[C@H]3[C@@](O)(C(=O)OC)[C@H](OC(C)=O)[C@]5(CC)C=CCN6CC[C@]43[C@@H]65)C2)C1 (stereo not given in full) . Is its normalized growth below 1?
t

A record lists CN(C)CCOC(c1ccc(Cl)cc1)c1ccccn1 (stereo not given) . Is its normalized growth below 1?
f
